Assay: Hepatocyte stability (parent drug disappearance in cryopreserved hepatocytes)
Format: in vitro ADME, human
Conditions: human, cryopreserved human hepatocytes, class symbol; human hepatocytes, 2 μM substrate, 37° C.
Method: This assay was used to evaluate the metabolic stability of test articles (TA) following incubation in cryopreserved hepatocytes by monitoring parent drug disappearance via LC/MC. The TA was incubated with 1 million hepatocytes/mL at 2 μM substrate in duplicate. The incubation was carried out at 37° C. with 5% CO2 and saturating humidity. Samples were taken at 0, 1, 2, and 4 hours to monitor the disappearance of TA and a half-life (t1/2) was determined. […]
The entries below are paired with their reported half-life at 2 μM.

Solved cases below.
C[C@H](Nc1nc(N)nc(N)c1C#N)c1nc2cccc(C(F)(F)F)c2c(=O)n1-c1cccnc1 : > 10 h
Cc1cccc2nc([C@H](C)Nc3nc(N)nc(N)c3C#N)n(-c3cncc(F)c3)c(=O)c12 : 3 to 6 h
N#Cc1c(N)nc(N)nc1N[C@H](c1nc2c(F)ccc(Cl)c2c(=O)n1-c1cncc(F)c1)C1CC1 : > 10 h

Prompt line: Using known records, supply half-life at 2 μM for C[C@H](Nc1nc(N)nc(N)c1C#N)c1nc2c(Cl)cccc2c(=O)n1-c1cccnc1
Response line: 6 to 10 h

Prompt line: Using known records, supply half-life at 2 μM for C[C@H](Nc1nc(N)nc(N)c1C#N)c1nc2c(F)ccc(Cl)c2c(=O)n1-c1cncc(F)c1
Response line: > 10 h

Prompt line: Using known records, supply half-life at 2 μM for C[C@H](Nc1nc(N)nc(N)c1C#N)c1nc2c(Cl)ccc(Cl)c2c(=O)n1-c1cccnc1
Response line: > 10 h

====

Molecular target: PI3Kδ (Homo sapiens (Human), UniProt O00329)
Sequence (O00329 whole entry, canonical isoform): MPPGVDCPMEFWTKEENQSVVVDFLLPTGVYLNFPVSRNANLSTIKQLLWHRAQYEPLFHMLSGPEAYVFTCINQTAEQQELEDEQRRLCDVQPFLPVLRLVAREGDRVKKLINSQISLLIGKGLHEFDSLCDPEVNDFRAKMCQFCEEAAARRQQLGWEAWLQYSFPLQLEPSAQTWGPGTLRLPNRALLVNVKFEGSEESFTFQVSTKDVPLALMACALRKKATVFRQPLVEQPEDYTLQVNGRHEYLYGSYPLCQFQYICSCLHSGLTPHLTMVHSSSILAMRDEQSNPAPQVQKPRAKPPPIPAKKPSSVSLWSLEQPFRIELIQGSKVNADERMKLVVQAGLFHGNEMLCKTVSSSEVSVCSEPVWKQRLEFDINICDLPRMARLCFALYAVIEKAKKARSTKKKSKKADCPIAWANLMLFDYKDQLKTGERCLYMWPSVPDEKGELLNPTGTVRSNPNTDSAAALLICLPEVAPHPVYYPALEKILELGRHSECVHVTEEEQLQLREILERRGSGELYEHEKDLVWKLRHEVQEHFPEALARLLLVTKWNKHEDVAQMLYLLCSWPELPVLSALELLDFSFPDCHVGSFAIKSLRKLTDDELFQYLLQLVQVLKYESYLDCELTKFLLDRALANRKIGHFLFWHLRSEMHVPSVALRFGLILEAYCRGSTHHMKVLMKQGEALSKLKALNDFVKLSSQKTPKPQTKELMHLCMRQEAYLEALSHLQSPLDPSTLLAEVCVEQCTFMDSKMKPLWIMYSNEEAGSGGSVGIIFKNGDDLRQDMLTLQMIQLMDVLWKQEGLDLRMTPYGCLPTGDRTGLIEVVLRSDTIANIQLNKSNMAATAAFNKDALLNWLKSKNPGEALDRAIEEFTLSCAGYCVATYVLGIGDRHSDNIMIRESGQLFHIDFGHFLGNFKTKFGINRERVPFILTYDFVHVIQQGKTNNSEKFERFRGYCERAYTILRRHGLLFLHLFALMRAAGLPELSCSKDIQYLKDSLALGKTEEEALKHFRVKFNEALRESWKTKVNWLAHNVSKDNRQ
Sequence (P27986 whole entry partner, canonical isoform): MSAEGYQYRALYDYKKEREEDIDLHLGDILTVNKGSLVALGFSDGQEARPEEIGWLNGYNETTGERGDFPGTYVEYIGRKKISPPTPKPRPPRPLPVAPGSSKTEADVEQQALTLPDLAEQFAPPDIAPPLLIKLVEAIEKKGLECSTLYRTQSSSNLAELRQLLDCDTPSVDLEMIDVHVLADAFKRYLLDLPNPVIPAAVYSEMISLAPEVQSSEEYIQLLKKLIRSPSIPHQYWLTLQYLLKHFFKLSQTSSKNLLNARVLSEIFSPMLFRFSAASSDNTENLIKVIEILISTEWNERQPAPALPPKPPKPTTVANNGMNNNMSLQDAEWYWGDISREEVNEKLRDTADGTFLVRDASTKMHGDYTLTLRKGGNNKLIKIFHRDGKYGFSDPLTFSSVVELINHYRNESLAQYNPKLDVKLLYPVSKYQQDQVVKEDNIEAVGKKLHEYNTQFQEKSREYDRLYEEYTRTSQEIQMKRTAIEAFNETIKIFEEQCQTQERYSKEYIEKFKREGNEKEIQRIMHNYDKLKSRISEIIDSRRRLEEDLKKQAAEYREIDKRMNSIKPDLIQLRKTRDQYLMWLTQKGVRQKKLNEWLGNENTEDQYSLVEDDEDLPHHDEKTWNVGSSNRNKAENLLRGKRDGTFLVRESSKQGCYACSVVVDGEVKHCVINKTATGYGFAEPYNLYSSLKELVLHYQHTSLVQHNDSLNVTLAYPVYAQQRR
Assay: Enzymatic activity of PI3K isoforms, TR-FRET assay (PI3Kδ)
Details: 2× Km ATP, geometric mean if more than one value
quantity: IC50 (nM)

Solved cases below.
CC[C@H](Nc1nc(N)nc(N)c1C#N)c1nc2c(F)ccc(Br)c2c(=O)n1-c1cccnc1 : 1
C[C@H](Nc1nc(N)nc(N)c1C#N)c1nc2cccc(Cl)c2c(=O)n1-c1cncc(C(F)(F)F)c1 : 18
C[C@H](Nc1nc(N)nc(N)c1C#N)c1nc2c(F)ccc(Br)c2c(=O)n1-c1cccnc1 : 0.6
Cc1c(F)cncc1-n1c([C@@H](Nc2nc(N)nc(N)c2C#N)C2CC2)nc2cccc(Cl)c2c1=O (atropisomer, axis not shown) [Compound 69] : 60
C[C@H](Nc1nc(N)nc(N)c1C#N)c1nc2cccc(Cl)c2c(=O)n1-c1cncc(N)c1 : 0.6

A. C[C@H](Nc1nc(N)nc(N)c1Cl)c1nc2cccc(C#N)c2c(=O)n1-c1cccnc1
B. C[C@H](Nc1nc(N)nc(N)c1C#N)c1nc2c(F)ccc(Br)c2c(=O)n1-c1cncc(F)c1
Prompt line: Looking at recorded values for IC50, does A or B come in lower? State your choice using its label.
Response line: B
(B: 1 nM, A: 95 nM)

a. C[C@H](Nc1nc(N)nc(N)c1C#N)c1nc2c(C#N)cc(F)cc2c(=O)n1-c1cccnc1
b. C[C@H](Nc1ncnc(N)c1C#N)c1nc2cccc(Cl)c2c(=O)n1-c1cncc(N)c1
Prompt line: Just curious, which one has the larger IC50 reading, a or b ? State your choice using its label.
Response line: a
(a: 10 nM, b: 2 nM)
